Reported pIC50 by item:
tgt: cytoplasmic kinase domain of human IGF-1R (IGF-1R-GST) (Homo sapiens)
Construct: cytoplasmic kinase domain of human IGF-1R (amino acids 964-1370); GST (glutathione-S-transferase)
Sequence (P08069 964-1367 limits assumed): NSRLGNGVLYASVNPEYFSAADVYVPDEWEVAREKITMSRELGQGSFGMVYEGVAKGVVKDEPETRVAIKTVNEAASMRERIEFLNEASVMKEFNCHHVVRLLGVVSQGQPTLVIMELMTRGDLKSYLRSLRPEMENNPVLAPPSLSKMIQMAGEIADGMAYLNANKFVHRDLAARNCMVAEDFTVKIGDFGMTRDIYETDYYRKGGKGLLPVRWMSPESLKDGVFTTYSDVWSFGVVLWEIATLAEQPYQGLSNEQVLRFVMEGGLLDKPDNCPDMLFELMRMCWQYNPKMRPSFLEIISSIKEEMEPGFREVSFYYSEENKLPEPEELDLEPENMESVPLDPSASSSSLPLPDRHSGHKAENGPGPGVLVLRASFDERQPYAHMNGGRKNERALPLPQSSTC
procedure-details: Insulin-like growth factor-1 receptor (IGF-1R) kinase assay (DELFIA)
experimental-parameters: IGF-1R-GST kinase activity, read-out: IGF1R IC50
pIC50: −log10 of the molar value.
attribute-measured: pIC50

> print(dat)
                                   molecule  attribute.measured  observed
1  CCC1(CC)C(=O)Nc2cccc(CNc3nc(Nc4ccc(C(=O)NC5CCN(C)CC5)cc4OC)ncc3C(F)(F)F)c21               pIC50      7.24
2  Cc1cc(Nc2ncc(C(F)(F)F)c(NCc3cccc4c3C(C)(C)C(=O)N4)n2)ccc1C1CCN(CC(C)(C)O)CC1               pIC50      9.70
3  COc1cc(N2CCN(C3CCN(CCO)CC3)CC2)ccc1Nc1ncc(C(F)(F)F)c(NCc2cccc3c2CC(=O)N3)n1               pIC50      7.80
4  COc1cc(N2CC3CC2CN3C2CCN(C)CC2)ccc1Nc1ncc(C(F)(F)F)c(NCc2cccc3c2C(C)(C)C(=O)N3)n1 (stereo not drawn)               pIC50      8.30
5  COc1cc(N2CCN(C3CCOCC3)CC2)ccc1Nc1ncc(C(F)(F)F)c(NCc2cccc3c2C(C)(C)C(=O)N3C)n1               pIC50      8.52
6  COc1cc(N2CCC(N3CCC(O)CC3)CC2)ccc1Nc1ncc(C(F)(F)F)c(NCc2cccc3c2CC(=O)N3)n1               pIC50      8.30

###

tgt: cytoplasmic kinase domain of human IGF-1R (IGF-1R-GST) (Homo sapiens)
Construct: cytoplasmic kinase domain of human IGF-1R (amino acids 964-1370); GST (glutathione-S-transferase); made in house; host or cells: High Five insect cells (Invitrogen)
procedure-details: Insulin-like growth factor-1 receptor (IGF-1R) kinase assay (DELFIA)
Format: biochemical
experimental-parameters: IGF-1R-GST kinase activity, read-out: IGF1R IC50
attribute-measured: IC50 (nM)

> print(dat)
                                   compound  scale.unit  observed
1  COc1cc(N2CCN(C3CCN(C(=O)N(C)C)CC3)CC2)ccc1Nc1ncc(C(F)(F)F)c(NCc2cccc3c2CC(=O)N3)n1          nM        12
2  Cc1cc(C2CCCN(CCO)C2)ccc1Nc1ncc(Cl)c(NCc2cccc3c2C(C)(C)C(=O)N3)n1 (racemic)          nM         1
3  COc1cc(C2CCN(C(=O)CN(C)C)CC2)ccc1Nc1ncc(Br)c(NCc2cccc3c2C(C)(C)C(=O)N3)n1          nM       0.4
4  Cc1cc(C2CCN(CCO)CC2)ccc1Nc1ncc(Br)c(NCc2cccc3c2C(C)(C)C(=O)N3)n1          nM      0.62
5  CC1(C)C(=O)Nc2cccc(CNc3nc(Nc4ccc(C5CCN(C(=O)[C@@H]6CCCN6)CC5)cc4)ncc3Cl)c21          nM         5
6  COc1cc(C(=O)NC2CCN(C)CC2)ccc1Nc1ncc(C(F)(F)F)c(NCc2cccc3c2C(C)(C)C(=O)N3C)n1          nM        15
7  CC1(C)C(=O)Nc2cccc(CNc3nc(Nc4ccc(C5CCN(C(=O)C6CCCN6)CC5)cc4)ncc3Br)c21 (stereo not shown)          nM         1

###

tgt: cytoplasmic kinase domain of human IGF-1R (IGF-1R-GST) (Homo sapiens)
Construct: cytoplasmic kinase domain of human IGF-1R (amino acids 964-1370); GST (glutathione-S-transferase)
procedure-details: Insulin-like growth factor-1 receptor (IGF-1R) kinase assay (DELFIA)
experimental-parameters: IGF-1R-GST kinase activity, read-out: IGF1R IC50
pIC50: −log10 of the molar value.
attribute-measured: pIC50

> print(dat)
                                   molecule                                       tgt  observed
1  CC(=O)N1CCC(n2cc(Nc3ncc(Cl)c(NCc4cccc5c4C(C)(C)C(=O)N5)n3)cn2)CC1  cytoplasmic kinase domain of human IGF-1R (IGF-1R-GST) (Homo sapiens)      7.68
2  COCCN1CCCC(c2ccc(Nc3ncc(Br)c(NCc4cccc5c4C(C)(C)C(=O)N5)n3)c(OC)c2)C1 (racemic)  cytoplasmic kinase domain of human IGF-1R (IGF-1R-GST) (Homo sapiens)      9.22
3  COc1cc(N2CCNCC2)ccc1Nc1ncc(Cl)c(NCc2cccc3c2C(C)(C)C(=O)N3)n1 [Example I-254]  cytoplasmic kinase domain of human IGF-1R (IGF-1R-GST) (Homo sapiens)      8.66
4  COc1cc(N2CCN(C3CCN(S(=O)(=O)N(C)C)CC3)CC2)ccc1Nc1ncc(C(F)(F)F)c(NCc2cccc3c2CC(=O)N3)n1  cytoplasmic kinase domain of human IGF-1R (IGF-1R-GST) (Homo sapiens)      7.92
5  CCN1CCN(c2ccc(Nc3ncc(C(F)(F)F)c(NCc4cccc5c4C(C)(C)C(=O)N5C)n3)c(OC)c2)CC1  cytoplasmic kinase domain of human IGF-1R (IGF-1R-GST) (Homo sapiens)      8.70
6  COCCN1CCCC(c2ccc(Nc3ncc(Cl)c(NCc4cccc5c4C(C)(C)C(=O)N5)n3)c(C)c2)C1 (racemic)  cytoplasmic kinase domain of human IGF-1R (IGF-1R-GST) (Homo sapiens)      9.40
7  CNC(=O)C1CCN(c2ccc(Nc3ncc(C(F)(F)F)c(NCc4cccc5c4C(C)(C)C(=O)N5)n3)c(OC)c2)CC1  cytoplasmic kinase domain of human IGF-1R (IGF-1R-GST) (Homo sapiens)      8.30

###

Tested on: TC-71 (Ewing's sarcoma) cells
procedure-details: Cell proliferation assay, TC-71 (Alamar Blue)
Type: cell-based
experimental-parameters: 72 h with compound, EC50 ranges as class symbols
attribute-measured: EC50

> print(dat)
                               entry.smiles      observed
1  COc1cc(N2CCN(CC(C)(C)O)CC2)ccc1Nc1ncc(C(F)(F)F)c(NCc2cccc3c2C(C)(C)C(=O)N3)n1       < 50 nM
2  COc1cc(N2CCN(CC(C)(C)O)CC2)ccc1Nc1ncc(Br)c(NCc2cccc3c2C(C)(C)C(=O)N3)n1       < 50 nM
3  COc1cc(C2CCN(CC(C)(C)O)CC2)ccc1Nc1ncc(Cl)c(NCc2cccc3c2C(C)(C)C(=O)N3)n1       < 50 nM
4  Cc1cc(N2CCN(CC(C)(C)O)CC2)ccc1Nc1ncc(C(F)(F)F)c(NCc2cccc3c2C(C)(C)C(=O)N3)n1  50 to 250 nM

###

tgt: cytoplasmic kinase domain of human IGF-1R (IGF-1R-GST) (Homo sapiens)
Construct: cytoplasmic kinase domain of human IGF-1R (amino acids 964-1370); GST (glutathione-S-transferase)
procedure-details: Insulin-like growth factor-1 receptor (IGF-1R) kinase assay (DELFIA)
experimental-parameters: IGF-1R-GST kinase activity, read-out: IGF1R IC50
pIC50: −log10 of the molar value.
attribute-measured: pIC50

> print(dat)
                                    molecule  attribute.measured  observed
 1  COc1cc(N2CCN(C(=O)CCCN(C)C)CC2)ccc1Nc1ncc(C(F)(F)F)c(NCc2cccc3c2C(C)(C)C(=O)N3)n1 [Example I-86]               pIC50      9.00
 2  COCC(=O)N1CCC(c2ccc(Nc3ncc(Cl)c(NCc4cccc5c4C(C)(C)C(=O)N5)n3)c(C)c2)CC1 [Example I-292]               pIC50      8.30
 3  COc1cc(C2CCN(C(=O)C(C)(C)O)CC2)ccc1Nc1ncc(Cl)c(NCc2cccc3c2C(C)(C)C(=O)N3)n1 [Example I-300]               pIC50      7.96
 4  COc1cc(N2CCC(NCCN(C)C)CC2)ccc1Nc1ncc(C(F)(F)F)c(NCc2cccc3c2CC(=O)N3)n1 [Example I-194]               pIC50      8.15
 5  Cc1cc(C2CCCN(CC(C)(C)O)C2)ccc1Nc1ncc(Cl)c(NCc2cccc3c2C(C)(C)C(=O)N3)n1 (racemic) [Example I-328]               pIC50      9.00
 6  COc1cc(N2CCN(C(=O)CCCN(C)C)CC2)ccc1Nc1ncc(C(F)(F)F)c(NCc2cccc3c2CC(=O)N3)n1 [Example I-92]               pIC50      8.05
 7  COc1cc(N2CCN(C(C)=O)CC2)ccc1Nc1ncc(C(F)(F)F)c(NCc2cccc3c2CC(=O)N3)n1 [Example I-70]               pIC50      7.68
 8  CC1(C)C(=O)Nc2cccc(CNc3nc(Nc4ccc(C5CCN(C(=O)C6CCCC(=O)N6)CC5)cc4)ncc3Br)c21 (centres unmarked) [Example I-53]               pIC50      8.22
 9  CNC(=O)CN1CCCC(c2ccc(Nc3ncc(Br)c(NCc4cccc5c4C(C)(C)C(=O)N5)n3)cc2)C1 (racemic) [Example I-365]               pIC50      9.00
10  COc1cc(N2CCN(C3CCC3)CC2)ccc1Nc1ncc(C(F)(F)F)c(NCc2cccc3c2C(C)(C)C(=O)N3)n1 [Example I-155]               pIC50      9.00
11  COc1cc(N2CCC(N3CCC(N(C)C)CC3)CC2)ccc1Nc1ncc(C(F)(F)F)c(NCc2cccc3c2CC(=O)N3)n1 [Example I-182]               pIC50      8.52
12  COc1cc(N2CCN(C3CCC3)CC2)ccc1Nc1ncc(Cl)c(NCc2cccc3c2C(C)(C)C(=O)N3)n1 [Example I-96]               pIC50      8.52
13  Cc1cc(C2CCN(CC(C)(C)O)CC2)ccc1Nc1ncc(Cl)c(NCc2cccc3c2C(C)(C)C(=O)N3)n1 [Example I-377]               pIC50      9.05
14  COc1cc(N2CCC(N3CCN(C)CC3)CC2)ccc1Nc1ncc(C(F)(F)F)c(NCc2cccc3c2CC(=O)N3)n1 [Example I-202]               pIC50      7.62
